# Subject Of Test: mTOR (Homo sapiens, UniProt P42345)
# Protocol Details: Lanthascreen kinase binding assay, assay G
# Condition Context: read-out: Assay G mTOR IC50
Structures can show the parent of a compound that is named as a salt.
Mark Met only for IC50 values smaller than 5 µM; exact matches and larger values are Not met.

Field: example entries. Status: answers known.
Exercise: is_below(IC50, 5 µM) for Cc1ccc(S(=O)(=O)N2CCC(F)(F)CC2)cc1-c1cnc(N)c(-n2cncn2)n1 ?
Key: Not met

Exercise: is_below(IC50, 5 µM) for Cc1cc(-c2nc(-c3cc(S(=O)(=O)NC[C@@H](C)O)ccc3C)cnc2N)ccn1 [Example 129, trifluoroacetic acid salt] ?
Key: Not met

Exercise: is_below(IC50, 5 µM) for Cc1ccc(S(=O)(=O)NC2CCC2)cc1-c1cnc(N)c(-n2cncn2)n1 ?
Key: Met

Exercise: is_below(IC50, 5 µM) for Cc1ccc(S(=O)(=O)NCCC(C)(C)O)cc1-c1cnc(N)c(-c2cncnc2)n1 ?
Key: Met

Exercise: is_below(IC50, 5 µM) for Cc1ncc(-c2nc(-c3cc(S(=O)(=O)NCCC(C)(C)O)ccc3C)cnc2N)o1 ?
Key: Not met

Others:
Exercise: is_below(IC50, 5 µM) for Cc1ncc(-c2nc(-c3cc(S(=O)(=O)N4CCNC(C(F)(F)F)C4)ccc3C)cnc2N)s1 (stereo not shown) ?
Key: Met

###

# Subject Of Test: PI 3-kinase alpha (Homo sapiens, UniProt P42336)
# Sequence (P42336 whole entry): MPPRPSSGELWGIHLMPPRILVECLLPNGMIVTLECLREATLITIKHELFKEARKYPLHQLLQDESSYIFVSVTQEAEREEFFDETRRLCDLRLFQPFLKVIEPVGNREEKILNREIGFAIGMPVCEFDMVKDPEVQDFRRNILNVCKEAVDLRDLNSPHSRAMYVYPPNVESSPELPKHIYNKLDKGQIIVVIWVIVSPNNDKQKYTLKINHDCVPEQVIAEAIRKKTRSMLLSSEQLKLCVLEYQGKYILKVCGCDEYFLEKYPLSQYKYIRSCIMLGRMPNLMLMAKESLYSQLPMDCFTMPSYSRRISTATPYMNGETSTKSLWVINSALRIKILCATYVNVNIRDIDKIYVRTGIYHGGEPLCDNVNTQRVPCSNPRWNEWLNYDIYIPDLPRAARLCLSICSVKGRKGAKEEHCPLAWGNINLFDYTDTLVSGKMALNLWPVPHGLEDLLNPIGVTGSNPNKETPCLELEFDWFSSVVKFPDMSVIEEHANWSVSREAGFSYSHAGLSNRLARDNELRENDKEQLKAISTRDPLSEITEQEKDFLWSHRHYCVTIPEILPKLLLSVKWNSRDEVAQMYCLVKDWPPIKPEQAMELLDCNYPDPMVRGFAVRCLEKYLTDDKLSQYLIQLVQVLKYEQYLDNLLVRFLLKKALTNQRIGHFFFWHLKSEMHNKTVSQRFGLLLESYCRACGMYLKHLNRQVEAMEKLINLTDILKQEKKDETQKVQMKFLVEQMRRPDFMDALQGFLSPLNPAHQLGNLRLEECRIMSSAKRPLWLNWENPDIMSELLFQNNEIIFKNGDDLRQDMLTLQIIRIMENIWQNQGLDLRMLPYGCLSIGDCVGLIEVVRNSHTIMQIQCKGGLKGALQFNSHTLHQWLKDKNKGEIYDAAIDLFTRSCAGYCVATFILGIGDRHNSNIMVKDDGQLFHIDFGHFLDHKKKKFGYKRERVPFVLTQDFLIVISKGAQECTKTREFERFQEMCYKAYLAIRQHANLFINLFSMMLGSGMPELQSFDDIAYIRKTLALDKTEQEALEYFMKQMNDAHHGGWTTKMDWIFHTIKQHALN
# Protocol Details: Kinase Glo Luminescent Kinase Assay (Kglo), assay A
# Assay type: biochemical
# Condition Context: read-out: Assay A PI3Kα IC50
Structures can show the parent of a compound that is named as a salt.
Listing: pIC50 of selected compounds
Note on pIC50: it is the negative log10 of concentration, concentration in mol/L.

Solved entries:
Exercise: Consider the compound shown here: CC(C)(O)CNS(=O)(=O)c1cccc(-c2cnc(N)c(-n3cncn3)n2)c1 What is its recorded pIC50?
Key: 5.54

Exercise: Consider the compound shown here: Cc1cc(-c2nc(-c3cc(S(=O)(=O)N4CCC(N)CC4)ccc3C)cnc2N)ccn1 What is its recorded pIC50?
Key: 5.80

Exercise: Consider the compound shown here: Cc1cc(-c2nc(-c3cc(S(=O)(=O)N[C@H]4CCC[C@@H]4N)ccc3C)cnc2N)ccn1 What is its recorded pIC50?
Key: 5.80

Exercise: Consider the compound shown here: Cc1ccc(S(=O)(=O)N[C@H]2CC[C@H](O)CC2)cc1-c1cnc(N)c(-c2ccncc2)n1 What is its recorded pIC50?
Key: 6.85

Exercise: Consider the compound shown here: Cc1ncc(-c2nc(-c3cc(S(=O)(=O)NCC4CCCCO4)ccc3C)cnc2N)s1 (stereo not shown) What is its recorded pIC50?
Key: 6.96

Exercise: Consider the compound shown here: Cc1cn(-c2nc(-c3cc(S(=O)(=O)NCCCO)ccc3C)cnc2N)cn1 What is its recorded pIC50?
Key: 6.49

Turning to the following compound.
Exercise: Consider the compound shown here: Cc1ccc(S(=O)(=O)N[C@@H]2CNC[C@H]2O)cc1-c1cnc(N)c(-n2cncn2)n1 [Example 127.60, trifluoroacetic acid salt] What is its recorded pIC50?
Key: 6.02

###

Listing: pIC50 of selected compounds
# Subject Of Test: PI 3-kinase beta (Homo sapiens)
# Sequence (P42338 whole entry): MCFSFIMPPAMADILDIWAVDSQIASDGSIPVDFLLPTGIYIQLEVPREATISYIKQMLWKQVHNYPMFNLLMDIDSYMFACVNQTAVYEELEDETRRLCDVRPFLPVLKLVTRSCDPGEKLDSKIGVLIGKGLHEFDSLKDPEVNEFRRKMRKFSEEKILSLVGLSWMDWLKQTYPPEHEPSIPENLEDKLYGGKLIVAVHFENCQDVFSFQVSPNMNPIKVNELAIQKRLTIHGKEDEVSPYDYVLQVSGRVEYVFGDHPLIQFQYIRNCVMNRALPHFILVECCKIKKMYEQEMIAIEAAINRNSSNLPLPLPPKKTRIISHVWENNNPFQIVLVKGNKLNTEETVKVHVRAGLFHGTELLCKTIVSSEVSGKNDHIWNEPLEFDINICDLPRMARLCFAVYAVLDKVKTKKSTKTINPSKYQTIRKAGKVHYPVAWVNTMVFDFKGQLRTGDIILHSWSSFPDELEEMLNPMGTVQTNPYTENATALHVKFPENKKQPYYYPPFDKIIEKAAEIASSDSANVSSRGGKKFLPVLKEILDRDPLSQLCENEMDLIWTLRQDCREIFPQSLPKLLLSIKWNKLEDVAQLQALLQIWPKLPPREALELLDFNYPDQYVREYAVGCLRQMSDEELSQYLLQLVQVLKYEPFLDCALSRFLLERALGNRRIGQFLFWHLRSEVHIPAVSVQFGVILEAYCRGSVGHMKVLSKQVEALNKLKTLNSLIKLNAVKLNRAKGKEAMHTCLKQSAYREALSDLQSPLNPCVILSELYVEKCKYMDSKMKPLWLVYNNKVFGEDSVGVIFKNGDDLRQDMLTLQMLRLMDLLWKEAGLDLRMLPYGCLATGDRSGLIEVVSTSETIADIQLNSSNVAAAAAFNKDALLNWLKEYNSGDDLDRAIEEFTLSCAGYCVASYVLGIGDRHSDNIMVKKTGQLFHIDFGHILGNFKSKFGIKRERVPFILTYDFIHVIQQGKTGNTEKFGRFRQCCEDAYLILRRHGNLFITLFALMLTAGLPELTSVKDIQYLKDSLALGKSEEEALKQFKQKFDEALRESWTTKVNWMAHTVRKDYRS
# Sequence (P27986 461-568 partner): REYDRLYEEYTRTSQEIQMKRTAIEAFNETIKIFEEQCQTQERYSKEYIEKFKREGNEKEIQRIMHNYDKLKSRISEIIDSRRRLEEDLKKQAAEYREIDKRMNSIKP
# Protocol Details: Kinase Glo Luminescent Kinase Assay (Kglo), assay B
# Type: biochemical
# Condition Context: read-out: Assay B PI3Kβ IC50
Where a name gives a salt, the structure may show the parent alone.
Note on pIC50: it is the negative log10 of concentration, concentration in mol/L.

Exercise: Consider the compound shown here: Cc1cc(F)c(S(=O)(=O)NCC(C)(C)O)cc1-c1cnc(N)c(-n2cncn2)n1 What is its recorded pIC50?
Key: 5.66

Exercise: Consider the compound shown here: Cc1ncc(-c2nc(-c3cc(S(=O)(=O)N4CC(CO)C4)ccc3C)cnc2N)s1 What is its recorded pIC50?
Key: 6.23

Exercise: Consider the compound shown here: Cc1ccc(S(=O)(=O)NCC(C)(C)CO)cc1-c1cnc(N)c(-n2cncn2)n1 What is its recorded pIC50?
Key: 5.74

Exercise: Consider the compound shown here: Cc1ccc(S(=O)(=O)NC[C@H]2CCCN2)cc1-c1cnc(N)c(-c2cn(C)nc2C)n1 [Example 106, hydrochloride] What is its recorded pIC50?
Key: 6.12

Exercise: Consider the compound shown here: Cc1ccc(S(=O)(=O)NC2CCSC2=O)cc1-c1cnc(N)c(-n2cncn2)n1 (centres unmarked) What is its recorded pIC50?
Key: 5.72

Exercise: Consider the compound shown here: Cc1nc(-c2nc(-c3cc(S(=O)(=O)NCC(C)(C)O)ccc3C)cnc2N)c(C)s1 What is its recorded pIC50?
Key: 5.85

Exercise: Consider the compound shown here: Cc1ccc(S(=O)(=O)N[C@H](C#N)CO)cc1-c1cnc(N)c(-n2cncn2)n1 What is its recorded pIC50?
Key: 5.21

Exercise: Consider the compound shown here: Cc1cc(-c2nc(-c3cc(S(=O)(=O)NCC4CCCOC4)ccc3C)cnc2N)ccn1 (centres unmarked) What is its recorded pIC50?
Key: 5.35
